Each item that follows carries a reported residual activity.
# target.or.system: UniProt P29320
# Sequence (P29320 whole entry, looked up): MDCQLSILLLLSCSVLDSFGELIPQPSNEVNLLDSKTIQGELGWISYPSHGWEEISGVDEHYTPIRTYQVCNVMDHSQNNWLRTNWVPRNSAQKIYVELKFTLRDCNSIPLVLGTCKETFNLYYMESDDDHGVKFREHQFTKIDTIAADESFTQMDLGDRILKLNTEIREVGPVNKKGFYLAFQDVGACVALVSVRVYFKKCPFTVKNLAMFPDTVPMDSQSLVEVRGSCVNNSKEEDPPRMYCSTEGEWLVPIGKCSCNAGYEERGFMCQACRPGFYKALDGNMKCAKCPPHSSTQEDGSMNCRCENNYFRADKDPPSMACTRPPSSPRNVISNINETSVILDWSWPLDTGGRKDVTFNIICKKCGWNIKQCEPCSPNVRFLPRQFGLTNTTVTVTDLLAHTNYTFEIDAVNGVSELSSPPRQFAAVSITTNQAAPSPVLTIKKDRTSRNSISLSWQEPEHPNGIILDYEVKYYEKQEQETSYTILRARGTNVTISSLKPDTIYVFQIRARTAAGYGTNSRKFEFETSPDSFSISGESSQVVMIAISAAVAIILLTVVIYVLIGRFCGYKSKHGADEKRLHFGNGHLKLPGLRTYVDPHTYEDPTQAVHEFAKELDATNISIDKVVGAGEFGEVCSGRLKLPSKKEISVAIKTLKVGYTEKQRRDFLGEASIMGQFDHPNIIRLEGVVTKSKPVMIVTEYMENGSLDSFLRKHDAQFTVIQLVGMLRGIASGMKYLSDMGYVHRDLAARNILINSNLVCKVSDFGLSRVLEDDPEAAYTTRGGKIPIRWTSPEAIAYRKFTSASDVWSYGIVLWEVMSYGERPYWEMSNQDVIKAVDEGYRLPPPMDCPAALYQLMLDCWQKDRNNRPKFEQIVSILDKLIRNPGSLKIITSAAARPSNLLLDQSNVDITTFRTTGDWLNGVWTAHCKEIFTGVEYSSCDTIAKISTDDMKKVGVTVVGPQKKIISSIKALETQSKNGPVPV
# procedure.text: radiometric filter-binding kinase assay, Kinase HotSpot
# measurement.context: compound 0.5 µM; ATP 10 µM
measure: residual activity (%)

> print(dat)
                       smiles.representation  target.or.system            measure  test.result
 1                   Nc1ncnc2c1cnn2-c1ccccc1    UniProt P29320  residual activity           95
 2        CCCCc1c(-c2ccc(O)cc2)[nH]c2nccnc12    UniProt P29320  residual activity           95
 3  O=S(=O)(NCCNC/C=C/c1ccc(Br)cc1)c1cccc2cnccc12    UniProt P29320  residual activity          109
 4  O=c1c(-c2ccc(F)cc2)c(-c2ccncc2)[nH]n1-c1ccc(Cl)cc1    UniProt P29320  residual activity         84.4
 5  c1ccc(-c2cnc(Nc3ccc(OCCN4CCCC4)cc3)s2)cc1    UniProt P29320  residual activity         98.7
 6    N#Cc1c(NC(=O)c2cccc3ccccc23)sc2c1CCCC2    UniProt P29320  residual activity          103
 7  COc1cc2c(Nc3ccc(Br)cc3F)ncnc2cc1OCC1CCN(C)CC1    UniProt P29320  residual activity         57.7
 8       CCOc1cc2ncnc(Nc3cccc(Br)c3)c2cc1OCC    UniProt P29320  residual activity         83.3
 9  O=C1NC(=O)c2cc(Nc3ccc(F)cc3)c(Nc3ccc(F)cc3)cc21    UniProt P29320  residual activity         96.6
10     O=c1cc(N2CCOCC2)oc2c(-c3ccccc3)cccc12    UniProt P29320  residual activity         98.7
11  N#CCCc1ccc2c(c1)-c1[nH]c3ccc([N+](=O)[O-])cc3c1CC(=O)N2    UniProt P29320  residual activity         93.9
12  O=C1NC(=O)c2c1c1c3ccccc3[nH]c1c1[nH]c3cc(Br)ccc3c21    UniProt P29320  residual activity          100
13  Cn1cc(/C=C2\C(=O)Nc3ccc(S(N)(=O)=O)cc32)c2ccccc21    UniProt P29320  residual activity         80.9
14  COc1cc2c(N3CCN(C(=O)Nc4ccc(OC(C)C)cc4)CC3)ncnc2cc1OCCCN1CCCCC1    UniProt P29320  residual activity         94.7
15      CCc1nc(-c2ccc(OC)cc2)[nH]c1-c1ccncc1    UniProt P29320  residual activity          100
16  O=c1[nH]c2ccccc2n1C1CCN(Cc2ccc(-c3nc4cc5[nH]cnc5cc4nc3-c3ccccc3)cc2)CC1    UniProt P29320  residual activity         71.9
17  N/C(=N\N=C/c1ccc(-c2cccc([N+](=O)[O-])c2)o1)N[N+](=O)[O-]    UniProt P29320  residual activity         99.3
18          COc1cccc(-c2cc(=O)c3ccccc3o2)c1N    UniProt P29320  residual activity         96.3
19  COc1cc2c(cc1OC)-c1[nH]nc(Nc3cccc(F)c3)c1C2    UniProt P29320  residual activity         94.5
20   Cc1cc(Nc2nc(-c3ccccc3)nc3ccccc23)n[nH]1    UniProt P29320  residual activity         88.9
21      COc1cc2ncnc(Nc3ccc(O)c(Br)c3)c2cc1OC    UniProt P29320  residual activity         95.4
22  FC(F)(F)c1ccc(/C=C/c2nc(COc3ccc(CCCCn4ccnn4)cc3)co2)cc1    UniProt P29320  residual activity         92.7
